Would you kindly list bioavailability for each of these molecules?
assay: Pharmacokinetics following a single dose in rat (LC-MS/MS of blood, one-compartment model); type: in vivo; conditions: rat, blood, po, 3 mg/kg, Rat, Oral PK (3 mg/kg); read-out: Bioavailability (%)
# value in %; strip the unit string

## Input // lookup bioavailability for O=C1NCCCC[C@@H]1NC(=O)C12CC3CC(CC(O)(C3)C1)C2 [(V)]
## Output 59

## Input // lookup bioavailability for CC(C)(C)C(=O)N[C@H]1CCCNC1=O [Compound (I′)]
## Output 81

---

test: Pharmacokinetics following a single dose in rat (LC-MS/MS of blood, one-compartment model); assay type: in vivo; details: blood; Rat, Oral PK (3 mg/kg); read-out: Half-life
Would you kindly list half-life for each of these compounds?
# value in h; strip the unit string

## Input // lookup half-life for "CC(C)(C)C(=O)N[C@H]1CCCNC1=O"
## Output 3.77

## Input // lookup half-life for "O=C1NCCCC[C@@H]1NC(=O)C12CC3CC(CC(O)(C3)C1)C2"
## Output 0.4

---

test: Pharmacokinetics following a single dose in rat (LC-MS/MS of blood, one-compartment model); type: in vivo; details: rat, blood, po, 3 mg/kg, rat, 1 mg/kg iv in 5% DMSO and 3 mg/kg oral in 1% CMC, one-compartment model, averaged across three rats; read-out: F (%) oral bioavailability
Would you kindly list bioavailability for each of these compounds?
# value in %; strip the unit string

## Input // lookup bioavailability for "CC(C)(C)S(=O)(=O)N[C@H]1CCCCNC1=O"
## Output 45

## Input // lookup bioavailability for "O=C1NCCCC[C@@H]1NC(=O)C12CC3CC(CC(O)(C3)C1)C2"
## Output 59

## Input // lookup bioavailability for "CC(C)(C)C(=O)N[C@H]1CCCNC1=O"
## Output 69

---

assay: Distribution of compounds into tissues and unchanged parent in urine 24 hrs after a single oral dose; format: in vivo; conditions: brain; rat, 24 hrs after single oral dose 3 mg/kg in 1% CMC; nd = not detected, LLOQ 2.4 ng/g; read-out: Level of compound in Brain
Parameter: concentration at 24 h (ng/g)
# value in ng/g; strip the unit string

## Input // lookup concentration at 24 h for CC(C)(C)C(=O)N[C@H]1CCCNC1=O [Compound (I′)]
## Output 1.6

---

experiment: Pharmacokinetics following a single dose in rat (LC-MS/MS of blood, one-compartment model); assay type: in vivo; conditions: blood; rat, single oral dose 3 mg/kg in 1% CMC, averaged across three rats; read-out: Exposure (AUC 0->infinity) (converted)
Would you kindly list AUC(0-inf) for each of these compounds?
# value in ng·h/mL; strip the unit string

## Input // lookup AUC(0-inf) for "O=C1NCCCC[C@@H]1NC(=O)C12CC3CC(CC(O)(C3)C1)C2"
## Output 952

## Input // lookup AUC(0-inf) for "CC(C)(C)S(=O)(=O)N[C@H]1CCCCNC1=O"
## Output 690

## Input // lookup AUC(0-inf) for "O=C1NCCCC[C@@H]1NC(=O)C12CC3CC(CC(C3)C1)C2"
## Output 7.95

## Input // lookup AUC(0-inf) for "CC(C)(C)C(=O)N[C@H]1CCCNC1=O"
## Output 15600

## Input // lookup AUC(0-inf) for "CC1(C(=O)N[C@H]2CCCCNC2=O)CCCCC1"
## Output 48.3

---

assay: Distribution of compounds into tissues and unchanged parent in urine 24 hrs after a single oral dose; format: in vivo; details: lung; rat, 24 hrs after single oral dose 3 mg/kg in 1% CMC; nd = not detected, LLOQ 2.4 ng/g; read-out: Level of compound in Lung
Parameter: concentration at 24 h (ng/g)
# value in ng/g; strip the unit string

## Input // lookup concentration at 24 h for "CC(C)(C)C(=O)N[C@H]1CCCNC1=O"
## Output 21.9
